Values were extracted from patent US8633183B2.

assay target: PI3Kalpha (Homo sapiens (Human))
Sequence (P42336 whole entry, looked up): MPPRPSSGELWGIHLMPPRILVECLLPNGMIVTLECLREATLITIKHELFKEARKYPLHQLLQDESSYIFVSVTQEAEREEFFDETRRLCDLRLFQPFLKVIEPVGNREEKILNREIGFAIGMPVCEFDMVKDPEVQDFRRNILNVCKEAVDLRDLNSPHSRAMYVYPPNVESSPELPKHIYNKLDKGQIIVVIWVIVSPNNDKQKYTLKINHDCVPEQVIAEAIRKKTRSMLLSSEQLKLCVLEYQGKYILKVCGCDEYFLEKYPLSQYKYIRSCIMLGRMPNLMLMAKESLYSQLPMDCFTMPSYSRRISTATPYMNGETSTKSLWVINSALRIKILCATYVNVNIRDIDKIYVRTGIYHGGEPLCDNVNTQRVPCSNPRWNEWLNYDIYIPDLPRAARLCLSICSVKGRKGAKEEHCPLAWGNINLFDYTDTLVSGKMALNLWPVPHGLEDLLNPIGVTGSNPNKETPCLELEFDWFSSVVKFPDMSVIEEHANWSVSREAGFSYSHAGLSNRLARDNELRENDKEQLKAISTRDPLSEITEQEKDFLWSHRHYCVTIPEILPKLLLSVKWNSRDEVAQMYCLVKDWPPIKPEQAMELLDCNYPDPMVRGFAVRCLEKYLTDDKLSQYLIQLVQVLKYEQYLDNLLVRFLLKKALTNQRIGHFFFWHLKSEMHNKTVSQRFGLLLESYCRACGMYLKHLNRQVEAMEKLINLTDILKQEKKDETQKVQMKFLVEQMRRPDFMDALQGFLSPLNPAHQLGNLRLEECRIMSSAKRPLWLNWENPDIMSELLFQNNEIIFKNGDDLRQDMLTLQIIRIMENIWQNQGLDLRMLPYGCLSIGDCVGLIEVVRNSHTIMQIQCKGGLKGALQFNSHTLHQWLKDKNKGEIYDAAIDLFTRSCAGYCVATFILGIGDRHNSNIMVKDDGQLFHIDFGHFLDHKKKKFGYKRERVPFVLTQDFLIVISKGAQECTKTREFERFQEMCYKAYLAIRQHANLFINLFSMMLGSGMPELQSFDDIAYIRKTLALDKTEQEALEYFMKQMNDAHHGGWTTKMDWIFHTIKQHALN
Here the recorded IC50 is given for each entry.
Just the number please, in nM, no unit attached.

Past entries and their recorded results:
compound=CCc1ncnc(-c2cc(F)c(C(=O)N3CCN(CCOCCO)CC3)c(Cl)c2)c1C#Cc1ccc(N)nc1 units_label=nM observed_measurement=86
compound=Cc1cc(-c2ncnc(C)c2C#Cc2ccc(N)nc2)ccn1 units_label=nM observed_measurement=58
compound="CCc1ncnc(-c2ccc(C(=O)N3CCN(C)C(C)C3)c(F)c2)c1C#Cc1ccc(N)nc1 (centres unmarked)" units_label=nM observed_measurement=157
compound=CCc1ncnc(-c2cc(F)c(C(=O)N3CCC(C(C)(C)O)CC3)c(Cl)c2)c1C#Cc1ccc(N)nc1 units_label=nM observed_measurement=121
compound=Cc1ncnc(-c2ccc(C(=O)N3CCN(CCO)CC3)cc2)c1C#Cc1ccc(N)nc1 units_label=nM observed_measurement=106

Enter IC50 (test system PI3Kalpha (Homo sapiens (Human))) for CCc1ncnc(-c2ccc(C(=O)N3CCN(CC(F)F)CC3)c(Cl)c2)c1C#Cc1ccc(N)nc1
177

Enter IC50 (test system PI3Kalpha (Homo sapiens (Human))) for Cc1ncnc(-c2ccccc2)c1C#Cc1ccc(N)nc1
39

Enter IC50 (test system PI3Kalpha (Homo sapiens (Human))) for CCc1ncnc(-c2ccc(C(=O)N3CC[C@@H](O)C3)c(F)c2)c1C#Cc1ccc(N)nc1
69
